System: IMR32
procedure_text: 86Rb ion-flux assay, IMR32 positive control cells
Format: cell-based, human
measurement_parameters: Homo sapiens, IMR-32; IMR32; agonists and antagonists; read-out: EC50
measurement_name: pEC50
Please express pEC50 as -log10 of the molar concentration.

[[record]]
compound = "CN1CCCC1c1cccnc1 (centres unmarked)"
reading = 4.74


// next item, pEC50 requested
Reported pEC50 of CNC1(C)C2CCC(C2)C1(C)C (centres unmarked) : 6.96
